The reported numbers originate from ChEMBL document CHEMBL4219169.

- Assay protocol: Fraction unbound in human plasma at 5 uM incubated for 4 hrs at 37 degC by LC-MS/MS method
- Assay type: ADME, cell-free
Outcome measure: fraction unbound at 4 h, 5 µM

CCc1ccc(N(CC(C)C)S(=O)(=O)c2ccc(OCC3CCOCC3)c([S@@](C)(=N)=O)c2)cc1 :: 0.048
CCc1ccc(N(CC(C)C)S(=O)(=O)c2ccc(OCC3CCOCC3)c([S@](C)(=N)=O)c2)cc1 :: 0.049

----------
- Target of assay: Nuclear receptor ROR-alpha (Homo sapiens, UniProt P35398)
- Sequence (P35398 whole entry, the tested form may be a part): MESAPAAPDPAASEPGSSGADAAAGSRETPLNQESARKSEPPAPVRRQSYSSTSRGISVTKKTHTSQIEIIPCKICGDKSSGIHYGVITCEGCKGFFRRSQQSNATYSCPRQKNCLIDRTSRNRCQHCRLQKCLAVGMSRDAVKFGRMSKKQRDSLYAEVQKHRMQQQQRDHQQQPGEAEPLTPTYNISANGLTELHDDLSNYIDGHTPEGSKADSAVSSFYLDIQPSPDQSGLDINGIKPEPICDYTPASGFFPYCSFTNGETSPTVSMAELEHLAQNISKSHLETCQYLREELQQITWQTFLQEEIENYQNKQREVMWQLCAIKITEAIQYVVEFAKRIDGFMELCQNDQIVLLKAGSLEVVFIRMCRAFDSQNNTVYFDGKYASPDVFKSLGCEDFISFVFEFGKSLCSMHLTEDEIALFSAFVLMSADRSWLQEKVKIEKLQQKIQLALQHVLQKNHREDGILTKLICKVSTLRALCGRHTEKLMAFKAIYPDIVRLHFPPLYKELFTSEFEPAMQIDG
- Assay protocol: Inverse agonist activity at RORalpha (unknown origin) expressed in human HeLa-derived HG5LN cells transfected with the GAL4 DNA-binding domain fused to the RORalpha ligand-binding domain assessed as inhibition of transcriptional activity after 18 hrs by luminescence-based luciferase reporter gene assay
pIC50: −log10 of the molar value.
Outcome measure: pIC50

CCc1ccc(N(CC(C)C)S(=O)(=O)c2ccc(OCC3CCOCC3)c([S@](C)(=N)=O)c2)cc1 :: < 5.00

Here's the next entry for you.
Q) Recorded pIC50 for CCc1ccc(N(CC(C)C)S(=O)(=O)c2ccc(OCC3CCOCC3)c([S@@](C)(=N)=O)c2)cc1 with Nuclear receptor ROR-alpha (Homo sapiens, UniProt P35398), please?
A) < 5.00
